Values compiled from ChEMBL document CHEMBL2413072.

Tested on: SF-268
TEST_NAME: Growth inhibition of human SF268 cells by sulforhodamine B assay
Assay type: functional
CONDITION_SUMMARY: read-out: pGI50 (converted)
So basically: is GI50 under 5 µM? Then rule met. Not under? Then rule not met.

CC(C)=CC(=O)O[C@@H]1CC(C)(C)C[C@H]2C3=CC[C@@H]4[C@@]5(C)CCC(=O)C(C)(C)[C@@H]5CC[C@@]4(C)[C@]3(C)CC[C@@]12C(=O)O    rule not met
C/C=C(/C)C(=O)O[C@@H]1CC(C)(C)C[C@H]2C3=CC[C@@H]4[C@@]5(C)CCC(=O)C(C)(C)[C@@H]5CC[C@@]4(C)[C@]3(C)CC[C@@]12C(=O)O [LANTADENE A]    rule not met

Task item: Lab log: compare recorded GI50 with 5 µM; is it strictly lower for C/C=C(/C)C(=O)O[C@@H]1CC(C)(C)C[C@H]2C3=CC[C@@H]4[C@@]5(C)CC[C@H](O)C(C)(C)[C@@H]5CC[C@@]4(C)[C@]3(C)CC[C@@]12C(=O)O [Reduced Lantadene A] ?
Reply: rule met

Task item: Lab log: compare recorded GI50 with 5 µM; is it strictly lower for CC1(C)C[C@@H](O)[C@]2(C(=O)O)CC[C@]3(C)C(=CC[C@@H]4[C@@]5(C)C/C(=C\C=C\c6ccccc6)C(=O)C(C)(C)[C@@H]5CC[C@]43C)[C@@H]2C1 ?
Reply: rule met

Task item: Lab log: compare recorded GI50 with 5 µM; is it strictly lower for CC(C)=CC(=O)O[C@@H]1CC(C)(C)C[C@H]2C3=CC[C@@H]4[C@@]5(C)CC[C@H](O)C(C)(C)[C@@H]5CC[C@@]4(C)[C@]3(C)CC[C@@]12C(=O)O [Reduced Lantadene B] ?
Reply: rule not met
